target: Full length WRN protein (aa 2-1432) (Homo sapiens (Human)); experiment: WRN ATPase ADP-Glo biochemical assay, Assay Format B (100 μM ATP); conditions: 0.25 nM WRN, 100 nM C6.18 ssDNA, 60 min preincubation, read-out: ATPase ADPGlo AC50 (uM)- Assay Format B
# Lookup of reported AC50 keyed by entry

Here's what some known entries look like.
[
  {
    "Compound": "C=CC(=O)N1CC(OC2(COC)CC2)c2nn(-c3ccc(C4CC4)cc3)c3c2C(C1)N(C(=O)c1ccc(C(F)(F)F)nc1)CC3 (stereo not drawn)",
    "AC50": "> 0.055 µM"
  },
  {
    "Compound": "C=CC(=O)N1CCc2nn(-c3ccc(C4CCC4)cc3C#N)c3c2C(C1)N(C(=O)c1cnc(C(F)(F)F)cc1N)CC3 (stereo not drawn)",
    "AC50": "0.015 to 0.055 µM"
  },
  {
    "Compound": "C=CC(=O)N1CCOc2nn(-c3ccc(C(C)C)cc3)c3c2C(C1)N(C(=O)c1ccc(Br)c2[nH]cnc12)CC3 (stereo not drawn)",
    "AC50": "0.015 to 0.055 µM"
  },
  {
    "Compound": "C=CC(=O)N1CCc2nn(-c3ccc(C(C)C)cc3)c3c2C(C1)N(C(=O)c1ccc(Br)c2[nH]c(N)nc12)CC3 (stereo not drawn)",
    "AC50": "0.005 to 0.015 µM"
  },
  {
    "Compound": "C=CC(=O)N1CCc2nn(-c3ccc(C4CC4)cc3CO)c3c2C(C1)N(C(=O)c1cnc(C(F)(F)F)cc1N)CC3 (stereo not drawn)",
    "AC50": "0.015 to 0.055 µM"
  },
  {
    "Compound": "C=CC(=O)N1CCc2nn(-c3ccc(C4CCC4)cc3O)c3c2C(C1)N(C(=O)c1cnc(Br)c(OC(F)(F)F)c1)CC3 (stereo not drawn)",
    "AC50": "> 0.055 µM"
  },
  {
    "Compound": "C=CC(=O)N1CC(OC2CN(C(C)=O)C2)c2nn(-c3ccc(C4CCC4)cc3)c3c2C(C1)N(C(=O)c1ccc(C(F)(F)F)nc1)CC3 (stereo not drawn)",
    "AC50": "0.005 to 0.015 µM"
  },
  {
    "Compound": "C=CC(=O)N1CC(OCc2nnc(C)s2)c2nn(-c3ccc(C4CC4)cc3)c3c2C(C1)N(C(=O)c1cnc(C(F)(F)F)cc1N)CC3 (stereo not drawn)",
    "AC50": "0.0015 to 0.005 µM"
  }
]

Query: Which AC50 is reported for this compound? C=CC(=O)N1CCc2nn(-c3cc(F)c(C4CC4)cc3O)c3c2C(C1)N(C(=O)c1cnc(C(F)(F)F)cc1N)CC3 (stereo not drawn)
Result: 0.005 to 0.015 µM

----------
AC50 values for the molecules below.
molecular target: Full length WRN protein (aa 2-1432) (Homo sapiens (Human), UniProt Q14191); experiment: WRN ATPase ADP-Glo biochemical assay, Assay Format B (100 μM ATP); settings: 0.25 nM WRN, 100 nM C6.18 ssDNA, 60 min preincubation, read-out: ATPase ADPGlo AC50 (uM)- Assay Format B
Sequence (Q14191 2-1432): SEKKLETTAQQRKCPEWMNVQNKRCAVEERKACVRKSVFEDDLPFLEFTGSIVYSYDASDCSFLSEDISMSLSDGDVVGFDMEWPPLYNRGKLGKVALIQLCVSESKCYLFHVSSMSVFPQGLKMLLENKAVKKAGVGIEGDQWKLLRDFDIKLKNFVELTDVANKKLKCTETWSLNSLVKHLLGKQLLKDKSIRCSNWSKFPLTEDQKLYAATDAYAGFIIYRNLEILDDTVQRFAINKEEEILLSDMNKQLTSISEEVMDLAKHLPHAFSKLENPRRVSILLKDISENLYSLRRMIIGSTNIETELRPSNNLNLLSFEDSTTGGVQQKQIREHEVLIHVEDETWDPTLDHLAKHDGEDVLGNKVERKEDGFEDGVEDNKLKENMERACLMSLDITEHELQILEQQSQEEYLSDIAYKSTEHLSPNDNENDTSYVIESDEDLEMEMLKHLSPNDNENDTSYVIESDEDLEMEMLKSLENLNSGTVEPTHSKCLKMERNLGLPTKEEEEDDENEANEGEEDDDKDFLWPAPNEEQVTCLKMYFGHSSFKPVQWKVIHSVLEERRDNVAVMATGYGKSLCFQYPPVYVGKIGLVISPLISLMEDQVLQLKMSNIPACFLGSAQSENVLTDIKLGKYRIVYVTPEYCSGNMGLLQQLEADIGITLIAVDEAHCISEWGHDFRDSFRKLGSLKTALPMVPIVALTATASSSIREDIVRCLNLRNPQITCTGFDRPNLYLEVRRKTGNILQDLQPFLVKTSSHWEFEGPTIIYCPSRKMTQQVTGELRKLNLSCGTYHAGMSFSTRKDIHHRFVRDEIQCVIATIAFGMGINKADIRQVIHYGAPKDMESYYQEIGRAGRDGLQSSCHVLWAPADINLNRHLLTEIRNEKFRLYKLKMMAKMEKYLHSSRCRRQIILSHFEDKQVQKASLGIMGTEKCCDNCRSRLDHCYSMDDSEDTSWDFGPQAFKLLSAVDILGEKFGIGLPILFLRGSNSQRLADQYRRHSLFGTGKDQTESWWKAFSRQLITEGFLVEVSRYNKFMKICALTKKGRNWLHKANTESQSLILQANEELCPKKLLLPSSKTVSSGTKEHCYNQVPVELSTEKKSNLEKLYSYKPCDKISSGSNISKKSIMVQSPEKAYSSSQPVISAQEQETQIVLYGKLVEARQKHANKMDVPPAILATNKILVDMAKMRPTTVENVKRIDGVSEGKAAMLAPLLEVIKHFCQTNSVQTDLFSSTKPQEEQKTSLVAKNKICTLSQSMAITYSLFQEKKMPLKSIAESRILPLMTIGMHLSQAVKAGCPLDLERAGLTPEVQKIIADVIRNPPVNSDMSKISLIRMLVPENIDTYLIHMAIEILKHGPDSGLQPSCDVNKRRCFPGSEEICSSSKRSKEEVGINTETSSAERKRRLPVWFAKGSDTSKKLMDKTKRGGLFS

[
  {
    "Molecule": "C=CC(=O)N1CCc2nn(-c3ccc(C4CC4)cc3O)c3c2C(C1)N(C(=O)c1cnc(Br)c(F)c1N)CC3 (stereo not drawn)",
    "Target Entity": "Full length WRN protein (aa 2-1432) (Homo sapiens (Human), UniProt Q14191)",
    "Measured Value": "0.0015 to 0.005 µM"
  },
  {
    "Molecule": "C=CC(=O)N1CCOc2nn(-c3ccc(C4CCC4)cc3O)c3c2C(C1)N(C(=O)c1ccc(Br)c2[nH]cnc12)CC3 (stereo not drawn)",
    "Target Entity": "Full length WRN protein (aa 2-1432) (Homo sapiens (Human), UniProt Q14191)",
    "Measured Value": "0.015 to 0.055 µM"
  },
  {
    "Molecule": "C=CC(=O)N1CCOc2nn(-c3ccc(C4CCC4)cc3O)c3c2C(C1)N(C(=O)c1ccc2c(Br)n[nH]c2c1)CC3 (stereo not drawn)",
    "Target Entity": "Full length WRN protein (aa 2-1432) (Homo sapiens (Human), UniProt Q14191)",
    "Measured Value": "0.015 to 0.055 µM"
  },
  {
    "Molecule": "C=CC(=O)N1CCc2nn(-c3ccc(C4CC4)cc3O)c3c2C(C1)N(C(=O)c1cnc(C(F)(F)F)cc1N)CC3 (stereo not drawn)",
    "Target Entity": "Full length WRN protein (aa 2-1432) (Homo sapiens (Human), UniProt Q14191)",
    "Measured Value": "0.005 to 0.015 µM"
  },
  {
    "Molecule": "C=CC(=O)N1CCc2nn(-c3ccc(C45CC(C4)C5)cc3)c3c2C(C1)N(C(=O)c1cnc(C(F)(F)F)cc1N)CC3 (stereo not drawn)",
    "Target Entity": "Full length WRN protein (aa 2-1432) (Homo sapiens (Human), UniProt Q14191)",
    "Measured Value": "0.005 to 0.015 µM"
  },
  {
    "Molecule": "Nc1cc(C(F)(F)F)ncc1C(=O)N1CCc2c3c(nn2-c2ccc(C4CCC4)cc2)CCN(C(=O)/C=C\\Cl)CC31 (stereo not drawn)",
    "Target Entity": "Full length WRN protein (aa 2-1432) (Homo sapiens (Human), UniProt Q14191)",
    "Measured Value": "0.015 to 0.055 µM"
  },
  {
    "Molecule": "C=CC(=O)N1CCc2nn(-c3ccc(CC(F)(F)F)cc3O)c3c2C(C1)N(C(=O)c1cnc(C(F)(F)F)cc1N)CC3 (stereo not drawn)",
    "Target Entity": "Full length WRN protein (aa 2-1432) (Homo sapiens (Human), UniProt Q14191)",
    "Measured Value": "0.015 to 0.055 µM"
  },
  {
    "Molecule": "C=CC(=O)N1CCc2nn(-c3ccc(C4CCC4)cc3O)c3c2C(C1)N(C(=O)c1cnc(Br)c(OC(F)F)c1)CC3 (stereo not drawn)",
    "Target Entity": "Full length WRN protein (aa 2-1432) (Homo sapiens (Human), UniProt Q14191)",
    "Measured Value": "0.015 to 0.055 µM"
  }
]

Query: So what does the record say about AC50 for C=CC(=O)N1CCc2nn(-c3ccc(C4CC4)cc3O)c3c2C(C1)N(C(=O)c1ccc(Cl)nc1N)CC3 (stereo not drawn) ?
Result: 0.005 to 0.015 µM

Query: // query AC50 value for entry C=CC(=O)N1CCOc2nn(-c3ccc(C4CCC4)cc3)c3c2C(C1)N(C(=O)c1ccc(Br)c2[nH]cnc12)CC3 (stereo not drawn)
Result: 0.015 to 0.055 µM

Query: Which AC50 value is on record for C=CC(=O)N1CCc2nn(-c3ccc(C4CCC4)cc3O)c3c2C(C1)N(C(=O)c1cnc2c(C)nn(C)c2c1)CC3 (stereo not drawn) ?
Result: 0.005 to 0.015 µM

Query: Query (molecule): C=CC(=O)N1CCc2nn(-c3ccc(C4CC4)cc3O)c3c2C(C1)N(C(=O)c1cnc(SC)cc1N)CC3 (stereo not drawn) ; field requested: AC50
Result: 0.0015 to 0.005 µM
